Overview of reported cell viability across a group of compounds:
System: SEM cells
Test: cell viability relative to DMSO control; higher = less cytotoxic
Conditions: RPMI 5 mM glucose + 10% dialyzed FBS; 48 h; 0.569 µM

>  <QUERY_SMILES>
C[C@@H]1C[C@H]2[C@@H]3CC\C4=C\C(=O)\C=C/[C@]4(C)[C@@]3(Cl)[C@@H](O)C[C@]2(C)[C@@]1(OC(=O)C5=CC=CO5)C(=O)CCl

>  <cell viability, %>
46.8

$$$$
>  <QUERY_SMILES>
Cc1ccc(C(=O)c2cc(O)c(O)c([N+](=O)[O-])c2)cc1

>  <cell viability, %>
80.8

$$$$
>  <QUERY_SMILES>
CN(C)CCCNC(=O)c1ccc(-c2cc(O)c3ncccc3c2)cc1

>  <cell viability, %>
103

$$$$
>  <QUERY_SMILES>
CCN(CC)CCN1C(=O)\C(=N/C2=CC=CC=C12)CC3=CC=C(OC)C=C3

>  <cell viability, %>
112

$$$$
>  <QUERY_SMILES>
Cc1ccc(-c2ncn(-c3ccc(Nc4nccc(-c5cccc(N6CCOCC6)c5)n4)cc3)n2)cn1

>  <cell viability, %>
5.8

$$$$
>  <QUERY_SMILES>
NC(=O)c1cccc(N)c1

>  <cell viability, %>
105

$$$$
